Target: EGFR(L858R/T790M) (Homo sapiens, UniProt P00533, L858R/T790M)
Construct: purchased from Carna (GST-a.a. 669-1210)
Sequence (P00533 669-1210 T790M/L858R): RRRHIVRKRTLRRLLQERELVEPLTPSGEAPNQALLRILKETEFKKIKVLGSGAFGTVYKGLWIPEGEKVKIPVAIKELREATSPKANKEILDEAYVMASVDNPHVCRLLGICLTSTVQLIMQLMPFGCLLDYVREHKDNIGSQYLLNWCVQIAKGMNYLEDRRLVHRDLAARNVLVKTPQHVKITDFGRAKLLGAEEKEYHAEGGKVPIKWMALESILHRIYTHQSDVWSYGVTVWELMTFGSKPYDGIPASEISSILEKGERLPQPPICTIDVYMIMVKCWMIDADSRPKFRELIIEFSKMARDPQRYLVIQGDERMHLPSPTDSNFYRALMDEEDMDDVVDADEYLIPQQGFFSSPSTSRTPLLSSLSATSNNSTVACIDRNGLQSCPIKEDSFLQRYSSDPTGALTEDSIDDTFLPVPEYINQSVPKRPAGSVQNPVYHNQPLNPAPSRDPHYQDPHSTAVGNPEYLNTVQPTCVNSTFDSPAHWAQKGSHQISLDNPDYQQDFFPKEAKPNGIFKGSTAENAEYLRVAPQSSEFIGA
Experiment: EGFR biochemical assay (HTRF), IC50 determinations
Conditions: EGFR (L858R/T790M) with 90 min pre-incubation; read-out: IC50 (μM) Column B
readout: IC50

- molecule: "Cc1cccc2nc(NC(=O)c3ccnc(C(C)(C)C)c3)n(C3CCCCN(C(=O)/C=C/CN(C)C)C3)c12 (centres unmarked)"
  test-system: "EGFR(L858R/T790M) (Homo sapiens, UniProt P00533, L858R/T790M)"
  observed-result: "< 0.001 µM"
- molecule: "C=CC(=O)N1CCCC[C@H](n2c(NC(=O)c3cccc(C(F)(F)F)c3)nc3cccc(C)c32)C1 (single isomer, unassigned)"
  test-system: "EGFR(L858R/T790M) (Homo sapiens, UniProt P00533, L858R/T790M)"
  observed-result: "0.098 µM"
- molecule: "C=CC(=O)N1CCCC[C@@H](n2c(NC(=O)c3ccnc(C)c3)nc3cc(CN4CC[C@H](O)C4)cc(C)c32)C1"
  test-system: "EGFR(L858R/T790M) (Homo sapiens, UniProt P00533, L858R/T790M)"
  observed-result: "< 0.001 µM"
- molecule: "Cc1ccccc1-c1cc(C(=O)Nc2nc3cccc(C)c3n2[C@@H]2CCCCN(C(=O)/C=C/CN(C)C)C2)ccn1"
  test-system: "EGFR(L858R/T790M) (Homo sapiens, UniProt P00533, L858R/T790M)"
  observed-result: "< 0.001 µM"
- molecule: "Cc1cccc2nc(NC(=O)c3cc(F)c(F)c(F)c3)n(C3CCCCN(C(=O)/C=C/CN(C)C)C3)c12 (centres unmarked)"
  test-system: "EGFR(L858R/T790M) (Homo sapiens, UniProt P00533, L858R/T790M)"
  observed-result: "< 0.001 µM"

----------
Target: human EGFR L858R/T790M (NIH/3T3 cells) (Homo sapiens, UniProt P00533, L858R/T790M)
Sequence (P00533 25-1210 T790M/L858R): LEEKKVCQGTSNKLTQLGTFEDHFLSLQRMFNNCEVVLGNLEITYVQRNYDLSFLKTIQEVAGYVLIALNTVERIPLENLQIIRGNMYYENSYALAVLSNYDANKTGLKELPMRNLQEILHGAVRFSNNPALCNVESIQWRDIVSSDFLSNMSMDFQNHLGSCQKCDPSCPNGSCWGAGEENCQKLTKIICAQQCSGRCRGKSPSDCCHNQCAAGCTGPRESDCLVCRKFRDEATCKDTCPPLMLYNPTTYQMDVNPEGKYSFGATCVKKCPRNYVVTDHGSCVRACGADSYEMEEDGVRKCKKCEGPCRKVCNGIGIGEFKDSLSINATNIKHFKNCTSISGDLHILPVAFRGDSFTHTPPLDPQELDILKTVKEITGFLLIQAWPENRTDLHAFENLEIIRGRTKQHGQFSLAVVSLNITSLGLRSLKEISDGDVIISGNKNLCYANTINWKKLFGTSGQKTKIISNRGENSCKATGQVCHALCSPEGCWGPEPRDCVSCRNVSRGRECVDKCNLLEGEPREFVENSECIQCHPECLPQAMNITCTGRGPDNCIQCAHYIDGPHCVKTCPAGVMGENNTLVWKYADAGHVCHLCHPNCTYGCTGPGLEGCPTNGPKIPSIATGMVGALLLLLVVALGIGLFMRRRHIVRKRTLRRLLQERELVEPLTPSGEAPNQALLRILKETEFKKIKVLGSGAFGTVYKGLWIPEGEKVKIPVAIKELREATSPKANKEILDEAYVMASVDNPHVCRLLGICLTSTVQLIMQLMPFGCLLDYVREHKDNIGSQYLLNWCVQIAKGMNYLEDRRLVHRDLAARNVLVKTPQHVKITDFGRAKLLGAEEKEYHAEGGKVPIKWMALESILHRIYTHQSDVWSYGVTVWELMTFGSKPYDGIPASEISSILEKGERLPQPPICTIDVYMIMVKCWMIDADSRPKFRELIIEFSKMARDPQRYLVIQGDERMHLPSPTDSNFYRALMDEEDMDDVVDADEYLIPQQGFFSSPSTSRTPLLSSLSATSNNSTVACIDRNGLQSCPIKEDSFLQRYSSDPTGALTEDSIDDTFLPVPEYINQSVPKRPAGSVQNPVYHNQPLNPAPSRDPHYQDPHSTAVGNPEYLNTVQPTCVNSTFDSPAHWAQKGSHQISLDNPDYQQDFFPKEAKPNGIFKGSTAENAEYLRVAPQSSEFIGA
Experiment: EGFR target modulation in engineered NIH/3T3 cell lines (phospho-EGFR Y1068 AlphaLISA), EGFR L858R/T790M
Format: cell-based
Settings: engineered NIH/3T3 cells, read-out: NIH3T3 IC50 (μM) EGFR (L858R/T790M)

- molecule: "C=CC(=O)N1CCCC[C@@H](n2c(NC(=O)c3ccnnc3)nc3ccc(OC)c(Cl)c32)C1"
  IC50, µM: 0.002
- molecule: "C=CC(=O)N1CCCC[C@@H](n2c(NC(=O)c3ccccc3)nc3cccc(CO)c32)C1"
  IC50, µM: 0.002
- molecule: "Cc1cccc2nc(NC(=O)c3cccc(Cl)c3)n(C3CCCCN(C(=O)/C=C/CN(C)C)C3)c12 (stereo not drawn)"
  IC50, µM: 0.004

----------
Target: human EGFR WT (NIH/3T3 cells, EGF-induced) (Homo sapiens)
Sequence (P00533 25-1210): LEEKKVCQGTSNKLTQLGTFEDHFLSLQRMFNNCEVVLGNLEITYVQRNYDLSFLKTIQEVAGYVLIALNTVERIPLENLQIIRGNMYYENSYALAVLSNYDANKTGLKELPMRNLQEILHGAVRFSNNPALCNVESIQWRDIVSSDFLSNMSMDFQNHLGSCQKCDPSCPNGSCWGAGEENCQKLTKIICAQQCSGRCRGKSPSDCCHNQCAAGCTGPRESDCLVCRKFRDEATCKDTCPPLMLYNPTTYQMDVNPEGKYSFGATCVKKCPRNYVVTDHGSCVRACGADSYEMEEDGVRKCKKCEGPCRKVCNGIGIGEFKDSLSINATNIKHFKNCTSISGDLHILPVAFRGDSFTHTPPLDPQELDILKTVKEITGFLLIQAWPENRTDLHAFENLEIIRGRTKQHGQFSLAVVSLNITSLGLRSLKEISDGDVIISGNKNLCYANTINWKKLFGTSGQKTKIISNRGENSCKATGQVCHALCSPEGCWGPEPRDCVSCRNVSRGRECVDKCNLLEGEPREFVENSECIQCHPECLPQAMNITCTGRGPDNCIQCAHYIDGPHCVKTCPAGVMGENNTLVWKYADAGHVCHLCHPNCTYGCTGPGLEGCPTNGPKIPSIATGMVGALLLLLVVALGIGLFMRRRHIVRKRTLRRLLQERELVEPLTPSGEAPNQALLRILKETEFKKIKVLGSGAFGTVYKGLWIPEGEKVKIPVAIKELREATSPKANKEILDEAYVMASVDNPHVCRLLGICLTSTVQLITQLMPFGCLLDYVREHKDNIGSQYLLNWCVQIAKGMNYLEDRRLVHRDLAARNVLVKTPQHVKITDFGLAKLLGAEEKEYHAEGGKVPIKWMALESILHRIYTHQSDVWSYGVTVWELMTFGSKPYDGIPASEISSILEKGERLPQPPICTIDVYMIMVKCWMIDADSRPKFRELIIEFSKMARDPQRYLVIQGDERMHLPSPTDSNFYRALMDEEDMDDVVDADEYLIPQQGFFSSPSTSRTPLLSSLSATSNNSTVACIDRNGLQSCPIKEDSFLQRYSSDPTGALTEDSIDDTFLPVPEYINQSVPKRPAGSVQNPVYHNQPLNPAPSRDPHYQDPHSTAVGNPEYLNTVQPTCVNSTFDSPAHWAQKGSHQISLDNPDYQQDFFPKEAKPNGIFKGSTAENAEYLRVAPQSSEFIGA
Assay: EGFR target modulation in engineered NIH/3T3 cell lines (phospho-EGFR Y1068 AlphaLISA), EGFR WT
Type: cell-based
Details: engineered NIH/3T3 cells, read-out: NIH3T3 IC50 (μM) EGFR (WT)
IC50 listing for selected compounds.

- compound: "C=CC(=O)N1CCCC(n2c(NC(=O)c3cccc(C(F)(F)F)c3)nc3c2CN(C(=O)OC)CC3)C1 (stereo not drawn)"
  IC50: "> 10 µM"
- compound: "C=CC(=O)N1CCC[C@@H](n2c(NC(=O)c3cccc(C(F)(F)F)c3)nc3cc(COCC)ccc32)C1"
  IC50: "> 10 µM"
- compound: "C=CC(=O)N1CCC[C@@H](n2c(NC(=O)c3cccc(C(F)(F)F)c3)nc3cc(CN4CCCCC4)ccc32)C1"
  IC50: "> 10 µM"
